experiment_summary: Induction of nitric oxide release at 10^-4 M after 1 hr by Griess assay in presence of L-cysteine relative to control
Format: physicochemical
measurement_setup: 100 µM
Reported Activity is given for each of the following compounds.
readout_name: Activity (%)

>>> measured("O=C(COc1ccc(-c2cc(=O)c3c(O)cc(OCC(=O)OCCCCCCO[N+](=O)[O-])cc3o2)cc1)OCCCCCCO[N+](=O)[O-]")
1.147
>>> measured("O=[N+]([O-])OCC(CO[N+](=O)[O-])O[N+](=O)[O-]")
5.14
>>> measured("O=c1cc(-c2ccc(OCCO[N+](=O)[O-])cc2)oc2cc(OCCO[N+](=O)[O-])cc(O)c12")
0.3
>>> measured("O=C(COc1ccc(-c2cc(=O)c3c(O)cc(OCC(=O)OCCO[N+](=O)[O-])cc3o2)cc1)OCCO[N+](=O)[O-]")
1.237

====

experiment_summary: Inhibition of alpha-glucosidase (unknown origin) assessed as hydrolysis of pNP-alpha-Glu into pNP measured for 10 mins by spectrophotometric analysis
Parameters: species or system Homo sapiens
Reported IC50 is given for each of the following compounds.
readout_name: IC50 (µM)

>>> measured("O=c1cc(-c2ccccc2)oc2cc(OCCCCO[N+](=O)[O-])cc(O)c12")
18.7
>>> measured("O=c1cc(-c2ccccc2)oc2cc(OCCCCCCO[N+](=O)[O-])cc(O)c12")
21
>>> measured("OC[C@H]1NC[C@H](O)[C@@H](O)[C@@H]1O")
227

====

experiment_summary: Inhibition of alpha-glucosidase (unknown origin) assessed as hydrolysis of pNP-alpha-Glu into pNP measured for 10 mins by spectrophotometric analysis
Set-up: species or system Homo sapiens
pIC50: −log10 of the molar value.
Reported pIC50 is given for each of the following compounds.
readout_name: pIC50

>>> measured("O=C(COc1cc(O)c2c(=O)cc(-c3ccccc3)oc2c1)OCCCCCCO[N+](=O)[O-]")
5.47
>>> measured("O=c1cc(-c2ccccc2)oc2cc(OCCO[N+](=O)[O-])cc(O)c12")
4.52
>>> measured("O=C(COc1ccc(-c2cc(=O)c3c(O)cc(OCC(=O)OCCCCCCO[N+](=O)[O-])cc3o2)cc1)OCCCCCCO[N+](=O)[O-]")
5.59
>>> measured("O=c1cc(-c2ccccc2)oc2cc(O)cc(O)c12")
4.11
>>> measured("O=C(COc1cc(O)c2c(=O)cc(-c3ccccc3)oc2c1)OCCCCO[N+](=O)[O-]")
4.85
>>> measured("O=c1cc(-c2ccc(O)cc2)oc2cc(O)cc(O)c12")
4.78
>>> measured("O=c1cc(-c2ccc(OCCCCCCO[N+](=O)[O-])cc2)oc2cc(OCCCCCCO[N+](=O)[O-])cc(O)c12")
5.34
>>> measured("O=c1cc(-c2ccc(OCCO[N+](=O)[O-])cc2)oc2cc(OCCO[N+](=O)[O-])cc(O)c12")
5.11
>>> measured("O=C(COc1ccc(-c2cc(=O)c3c(O)cc(OCC(=O)OCCO[N+](=O)[O-])cc3o2)cc1)OCCO[N+](=O)[O-]")
5.43
>>> measured("O=C(COc1ccc(-c2cc(=O)c3c(O)cc(OCC(=O)OCCCCO[N+](=O)[O-])cc3o2)cc1)OCCCCO[N+](=O)[O-]")
5.63
>>> measured("O=C(COc1cc(O)c2c(=O)cc(-c3ccccc3)oc2c1)OCCO[N+](=O)[O-]")
4.62
>>> measured("C[C@H]1O[C@H](O[C@H]2[C@H](O)[C@@H](O)[C@@H](O[C@H]3[C@H](O)[C@@H](O)C(O)O[C@@H]3CO)O[C@@H]2CO)[C@H](O)[C@@H](O)[C@@H]1N[C@H]1C=C(CO)[C@@H](O)[C@H](O)[C@H]1O (stereo partly specified)")
3.25
>>> measured("O=c1cc(-c2ccc(OCCCCO[N+](=O)[O-])cc2)oc2cc(OCCCCO[N+](=O)[O-])cc(O)c12")
5.30

Reference source: ChEMBL document CHEMBL3112481
